# experimental protocol: qHTS assay to identify small molecule antagonists of the androgen receptor (AR) signaling pathway using the MDA cell line in the presence of 0.5 nM R1881 - cell viability counter screen (AID 1259242); note: nearly all actives have a fitted effect of over 45% in size; note: potency is the fitted concentration of half-maximal effect
# reported conditions: MDA-kb2 viability, CellTiter-Fluor protease fluorescence, 16 h; series mostly up to 92.4 µM
Inconclusive results are not listed. Active and inactive are the calls of the source. Calls come from the whole dose curve; as a rule, active = well fitted cell-killing curve with a large enough effect in the repeat runs; inconclusive = weak or mixed curves, or effect the other way; inactive = flat fitted curve, though single readings scatter.
assay endpoint: Potency

CC(=O)[O-].CC(=O)[O-].[Co+2]: inactive
O=C(O)CCCCCCNC1c2ccccc2CCc2ccccc21: inactive
CCC(C)Nc1c([N+](=O)[O-])cc(C(C)(C)C)cc1[N+](=O)[O-] (configuration not stated): inactive
CN1C2CCC(C)(C)C1CC(OC(=O)C(O)(c1cccs1)c1cccs1)C2 (configuration not stated): inactive
Brc1ccc(Oc2ccc(Br)cc2Br)c(Br)c1: inactive
N#CC(C#N)=NNc1cccc(Cl)c1: 2.43 µM (active)
CC(C)[C@@H](Nc1ccc(C(F)(F)F)cc1Cl)C(=O)OC(C#N)c1cccc(Oc2ccccc2)c1 (some centres not stated): inactive
C#CC1(O)CCCCC1: inactive

Would you kindly share the measured Potency for [Cl][Hg][c]1ccccc1 ?
8.63 µM (active)

One more compound: CC(=O)[O-].CC(=O)[O-].O.O.O.[Pb+2]
inactive

# repeat for C[C@@H]1CC2=CC(=O)CC[C@@H]2[C@H]2CC[C@@]3(C)[C@@H](CC[C@]3(C)O)[C@@H]21
inactive

Now the same for CC(C)C(Nc1ccc(C(F)(F)F)cc1Cl)C(=O)OC(C#N)c1cccc(Oc2ccccc2)c1 (configuration not stated)
inactive

---

# experimental protocol: qHTS assay to identify small molecule agonists of the endoplasmic reticulum stress response signaling pathway - cell viability counter screen (AID 1159517);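 note: HeLa cells carrying an ER stress response element beta-lactamase reporter; nearly all actives have a fitted effect of over 50% in size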
# reported conditions: ESRE-bla HeLa viability, CellTiter-Glo luminescence, 5 h; series mostly up to 61 µM
Results filed as inconclusive are left out. Active and inactive are the calls of the source. Calls come from the whole dose curve.
One label from this list, please: active, inactive

O=P(Cl)(Cl)Cl: inactive

In this assay, the call recorded for CCCCn1cc[n+](C)c1.[Cl][Fe-]([Cl])([Cl])[Cl] was what?
inactive

Check N#Cc1c[nH]cc1-c1cccc2c1OC(F)(F)O2 too.
inactive

Moving on to CCn1cc[n+](C)c1 (tested in a mixture with another compound)
inactive

Follow-up item: O=[N+]([O-])c1cccc2cccc([N+](=O)[O-])c12
inactive

Another compound to look at: CCC(OC(C)=O)C(CC(C)NC)(c1ccccc1)c1ccccc1 (centres undefined)
inactive

Could you do the same for CCc1cccc(C)c1N(C(=O)CCl)[C@@H](C)COC , please?
inactive

Next compound: BrCCCBr
inactive

What would you report for Cc1ccccc1OP(=O)(Oc1ccccc1C)Oc1ccccc1C ?
inactive

---

# experimental protocol: qHTS assay to identify small molecule antagonists of the estrogen receptor alpha (ER-alpha) signaling pathway using the BG1 cell line (AID 743080);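 note: BG1 cells stimulated with 17beta-estradiol alongside compound; nearly all actives have a fitted effect of over 25% in size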
# reported conditions: BG1Luc4E2 ERE-luciferase antagonist mode, luminescence; series mostly up to 70.3 µM
Results filed as inconclusive are left out. Calls of active or inactive are those of the source. Calls come from the whole dose curve.
Bench note: report the call from active, inactive

Below are worked cases with known answers.
CO/N=C(/C1=NOCCO1)c1ccccc1Oc1ncnc(Oc2ccccc2Cl)c1F: active
CC(C)N(C(=O)SC/C(Cl)=C/Cl)C(C)C: inactive
CC(=O)C(Cl)C(=O)N(C)C (configuration not stated): inactive
CC[C@]1(O)CC[C@H]2[C@@H]3CCC4=CCCC[C@@H]4[C@H]3CC[C@@]21C: inactive
COC(=O)N(OC)c1ccccc1COc1ccn(-c2ccc(Cl)cc2)n1: active
COP(=O)(OC)Oc1ccc([N+](=O)[O-])cc1: inactive
CC1(C)[C@H](/C=C2\CCSC2=O)[C@@H]1C(=O)OCc1coc(Cc2ccccc2)c1: active
O=NN(CCO)CCO: inactive

Tell me the recorded outcome of this test for CC1(C)C(C=C(Cl)Cl)C1C(=O)OC(C#N)c1ccc(F)c(Oc2ccccc2)c1 (configuration not stated) .
inactive

ClSC(Cl)(Cl)Cl ?
inactive

Same question, CCNc1nc(NC(C)C(C)C)nc(SC)n1 (configuration not stated) this time
inactive

Then Oc1ccc([C@H]2CNCc3c2ccc(O)c3O)cc1O ?
inactive

Follow-up item: COP(=O)(OC)O/C(=C\Cl)c1cc(Cl)c(Cl)cc1Cl
active

Can you handle N#Cc1ccc(N(CC(N)=O)CC(F)(F)F)cc1C(F)(F)F next?
inactive

Another molecule: N#CCCl
inactive

Same lookup for COc1c2c(cc3c1OCO3)CCN(C)C2 , please.
inactive

// next record C[N+]1(C)[C@@H]2CC[C@H]1CC(OC(=O)C(CO)c1ccccc1)C2 (some centres not stated)
inactive

---

# assay system: Cytochrome P450 2C9 (Homo sapiens) (UniProt P11712)
# Sequence (P11712 whole entry, looked up): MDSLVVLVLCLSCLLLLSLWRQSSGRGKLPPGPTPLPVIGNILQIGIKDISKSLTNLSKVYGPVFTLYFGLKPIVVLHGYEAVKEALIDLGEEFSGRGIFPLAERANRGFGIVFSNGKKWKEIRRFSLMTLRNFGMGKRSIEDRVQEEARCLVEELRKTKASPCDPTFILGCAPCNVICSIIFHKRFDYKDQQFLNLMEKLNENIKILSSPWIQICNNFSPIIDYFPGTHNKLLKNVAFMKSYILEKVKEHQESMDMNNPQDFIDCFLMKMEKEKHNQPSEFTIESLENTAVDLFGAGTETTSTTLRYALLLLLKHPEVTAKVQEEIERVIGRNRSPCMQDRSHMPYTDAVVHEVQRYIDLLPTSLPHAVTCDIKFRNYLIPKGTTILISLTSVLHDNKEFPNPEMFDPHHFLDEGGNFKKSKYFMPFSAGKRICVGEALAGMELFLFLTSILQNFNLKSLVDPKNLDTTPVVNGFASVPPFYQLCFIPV
# experimental protocol: Cytochrome P450 Family 2 Subfamily C Member 9 (CYP2C9) small molecule antagonists: luciferase reporter qHTS assay (AID 1671198); note: nearly all actives have a fitted effect of over 50% in size
# reported conditions: P450-Glo CYP2C9 enzyme assay, luciferin luminescence; series mostly up to 115 µM
Inconclusive results are not listed. Active and inactive are the calls of the source. Calls follow the shape of the dose curve; as a rule, active = well fitted inhibition curve with a large enough effect in the repeat runs; inconclusive = weak or mixed curves; inactive = no such curve, though single readings can be large or run the other way.
Entry note: the call must match one of active, inactive

Solved entries:
CCC(C)Br (stereo unspecified): inactive
O=NN(CCO)CCO: inactive
O=[N+]([O-])c1cc(C(F)(F)F)c(Cl)c([N+](=O)[O-])c1Nc1ncc(C(F)(F)F)cc1Cl: active
BrCC(Br)(Br)Br: inactive
C=CC(=O)[O][Sn]([CH2]CCC)([CH2]CCC)[CH2]CCC: active
CCCCCCCc1ccc(O)cc1: active
Cc1ccn2nc(S(=O)(=O)Nc3c(F)cccc3F)nc2n1: active
CCCCN(CCCC)C(=S)[S-].CCCCN(CCCC)C(=S)[S-].[Ni+2]: inactive
CCN(CC)Cc1nccn1-c1ccc([N+](=O)[O-])cc1C(=O)c1ccccc1Cl: inactive
CNN: inactive

Identify the outcome logged in this assay for the compound shown: CC(C)=CCN1CC[C@@]2(C)c3cc(O)ccc3C[C@@H]1[C@@H]2C
inactive

Quick one: C#CC1(O)CCCCC1
inactive

---

# experimental protocol: qHTS assay to identify small molecule agonists of the NFkB signaling pathway - cell viability counter screen (AID 1159515); note: nearly all actives have a fitted effect of over 55% in size
# reported conditions: NFkB-bla ME-180 viability, CellTiter-Glo luminescence, 5 h; series mostly up to 61 µM
# Text: National Center for Advancing Translational Sciences [NCATS] NIH Chemical Genomics Center [NCGC] U.S. Environmental Protection Agency [EPA] National Institutes of Environmental Health Sciences [NIEHS] National Toxicology Program [NTP] U.S. Food and Drug Administration [FDA] Transcription factors and their stimulated target gene expression play pivotal roles across many cellular processes including responses to environmental stimuli. […]
Records with an inconclusive call do not appear. Active and inactive are the calls of the source. Calls follow the shape of the full dose curve.
I would appreciate it if you answered using one of these outcomes: active, inactive

Recorded results for 5 molecules are shown here.
O=Cc1ccccc1: inactive
CCOP(=S)(OCC)SC(CCl)N1C(=O)c2ccccc2C1=O (configuration not stated): inactive
O=C1C2(Cl)C3(Cl)C4(Cl)C(Cl)(Cl)C5(Cl)C3(Cl)C1(Cl)C5(Cl)C24Cl (configuration not stated): active
[C-]1=CC=CC1.[Cl][Zr+2][Cl].c1cc[cH-]c1: inactive
COP(=S)(NC(C)C)Oc1ccc(C)cc1[N+](=O)[O-] (configuration not stated): inactive

Called result for Oc1ccc(Cl)c(Cl)c1
inactive

Follow-up item: CC(C)=CC1C(C(=O)OC(C#N)c2cccc(Oc3ccccc3)c2)C1(C)C (configuration not stated)
inactive

What do you get for N#Cc1sc2c(=O)c3ccccc3c(=O)c=2sc1C#N ?
active

Another: O=C(N[C@@H]1N=C(c2ccccc2F)c2cccc3c2N(CC3)C1=O)c1cc2ccccc2[nH]1
inactive

---

# experimental protocol: qHTS assay to identify small molecule HDAC inhibitors (AID 1259364); note: potency is the fitted concentration of half-maximal effect;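 note: wild-type HCT-116 cells with endogenous class I/II HDAC activity; nearly all actives have a fitted effect of over 45% in size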
# reported conditions: HCT-116 HDAC-Glo I/II luminescence, 2 h; series mostly up to 92.4 µM
Inconclusive results are not listed. Active and inactive are the calls of the source. Calls follow the shape of the dose curve; as a rule, active = well fitted inhibition curve with a large enough effect in the repeat runs; inconclusive = weak or mixed curves; inactive = flat fitted curve, though single readings scatter.
assay endpoint: Potency

Past entries and their recorded results:
CCC(C)Nc1c([N+](=O)[O-])cc(C(C)(C)C)cc1[N+](=O)[O-] (stereo not given): inactive
O=[N+]([O-])[O-].[Tl+]: inactive
CCCCN(CCCC)C(=S)[S-].CCCCN(CCCC)C(=S)[S-].[Ni+2]: inactive
C=CCOC(=O)c1ccccc1N: inactive
CCCC[N+]1(C)CCCC1 (tested in a mixture with another compound): inactive

Sample Nc1ccc(Cl)cc1C(=O)c1ccccc1F — what was its Potency?
inactive

Okay, and Cc1ccccc1OP(=O)(Oc1ccccc1C)Oc1ccccc1C ?
inactive

// query: C[C@]12Cc3cn[nH]c3C[C@@H]1CC[C@@H]1[C@@H]2CC[C@@]2(C)[C@H]1CC[C@]2(C)O
inactive

What do you get for Nc1nc(N)c(N)c(N)n1 ?
inactive

Similarly, CC(C)N(C(=O)CCl)c1ccccc1 ?
inactive

Do the same for CN(C)C(=S)SSC(=S)N(C)C please
inactive

Also COc1ccc(Cc2nccc3cc(OC)c(OC)cc23)cc1OC , if possible.
inactive

Item: O=C(O)CCCCCCNC1c2ccccc2CCc2ccccc21
inactive

How about CC(C)NCC(O)c1ccccc1Cl (stereo not given) ?
inactive

Quick one: CCOP(=S)(OCC)SC(CCl)N1C(=O)c2ccccc2C1=O (stereo not given)
inactive

Now consider COc1c2c(cc3c1OCO3)CCN(C)C2 and answer again.
inactive

Here is the next compound: O=S1(=O)OCC2C(CO1)C1(Cl)C(Cl)=C(Cl)C2(Cl)C1(Cl)Cl (stereo not given)
inactive

And then CCN(CC)CCc1c[nH]c2ccccc12 , what is it?
inactive

Do the same for Clc1ccc(C(Cl)(Cl)Cl)cc1Cl please
15 µM (active)

Same question for Cc1cnc2c(C(=O)O)c(Cl)ccc2c1 please.
inactive
